Data origin: paper PMC5051066

experiment: Pharmacokinetic study after i.v. administration in rats (online SPE HPLC of plasma, two-compartment model); type: in vivo, male Wistar rats; conditions: male, Wistar, rat, plasma, iv, i.v. bolus, 20 mg/kg, two-compartment model, read-out: Cla (clearance rate of the central compartment) (converted)
reported-endpoint: clearance (mL/min)
API: value field is a number in mL/min; no unit string.

## Task # input compound: COc1c(OC)c(O)c2c(=O)c(OC)c(-c3ccc(O)cc3)oc2c1OC ; wanted: its clearance
## Result 280

## Task Now consider COc1c(OC)c(O)c2c(=O)cc(-c3ccc(O)cc3)oc2c1OC .
## Result 30
